System: HOP-92
Assay: NCI tumour cell line growth inhibition, 48 h
Active and inactive are the calls of the source. Rule as the data show it: active = GI50 up to about 1.1 µM and inactive = higher.
Lab note: assign the record to one of 1 (active), -1 (inactive)

Example cases with answers are listed next.
CC1=C(C)C(=O)C2=C(OCCO2)C1=O : -1
CCCC(=O)OCC(COC(=O)CCC)OC(=O)CCC : -1
CCOC(=O)c1ccc(NCC#CCN2CCCCC2)cc1 : -1
COc1ccccc1OC(=O)/C=C/c1ccccc1 : -1
N#CC(C(=O)C(=O)NCCCNC(=O)C(=O)C(C#N)c1ccccc1)c1ccccc1 (stereo unspecified) : -1
COC(=O)N/N=C(\C)CC(=O)Nc1cccc([N+](=O)[O-])c1 : -1
CC1N=C(c2ccccc2)OC1=O (stereo unspecified) : -1
CCOC(=O)NC(Nc1ccc(F)c(F)c1)(C(=O)OCC)C(F)(F)F (stereo unspecified) : -1
O=C1C2c3[nH]c4ccccc4c3C3CCSCC3C2C(=O)N1c1ccccc1 (stereo unspecified) : -1
COC1C2C=CC(C2)[C@H]1[N+](=O)[O-] (stereo partly specified) : -1

Q: Short answer needed: outcome of this test for CC[C@@H]1CC[C@@H]2[C@H](CC[C@]3(C)[C@@H](OS(=O)(=O)c4ccc(C)cc4)CC[C@@H]23)[C@H]1CO ?
Result: -1

Q: Short answer needed: outcome of this test for O=C(NS(=O)(=O)c1ccccc1)C(Cc1ccccc1)C(Cc1ccccc1)C(=O)NS(=O)(=O)c1ccccc1 (stereo unspecified) ?
Result: -1

Q: Short answer needed: outcome of this test for O=C(/C=C/c1ccccc1)CCN1CCCCC1 ?
Result: -1

Q: Short answer needed: outcome of this test for NN/C(=N\c1ccc(Cl)cc1)NS(=O)(=O)c1ccc(S(=O)(=O)c2ccccc2)s1 ?
Result: -1

Q: Short answer needed: outcome of this test for CN(C)C(=S)/N=c1\ssc(=S)n1-c1ccccc1 ?
Result: -1

Q: Short answer needed: outcome of this test for COc1ccc(C(=O)c2sc(N(C)C)nc2-c2ccccc2)cc1 ?
Result: -1

Q: Short answer needed: outcome of this test for CCOC(=O)C(=O)Nc1c(C(C)C)cccc1C(C)C ?
Result: -1

Q: Short answer needed: outcome of this test for COc1ccccc1OCc1nnc(SCC(=O)O)n1-c1ccccc1 ?
Result: -1

Q: Short answer needed: outcome of this test for C[N+]1(C)CN(c2ccccc2)C2(CCN(CCCC(=O)c3cccs3)CC2)C1=O ?
Result: -1

Q: Short answer needed: outcome of this test for CC1=CC(O)CC(C)(C)C1/C=C/C(C)=C/C=C/C(C)=C/C=C/C=C(C)/C=C/C=C(C)/C=C/C1=C(C)CC(O)CC1(C)C (stereo unspecified) ?
Result: -1

Q: Short answer needed: outcome of this test for CC1=N/C(=C\c2cccc([N+](=O)[O-])c2)C(=O)O1 ?
Result: -1

Q: Short answer needed: outcome of this test for CC(=O)/C(=C\C1=CCCO1)C(=O)Nc1ccccc1C ?
Result: -1

* * *

Test system: ACHN
Test: NCI tumour cell line growth inhibition, 48 h
The source made the active and inactive calls. Cut-off read from the data, not from the text of the source: active = GI50 up to about 1.1 µM and inactive = higher.
readout type: GI50

# example entries with known answers
Cc1cc2c(c(/C=N/c3ccccc3O)c1)OC1(C=C2)Oc2ccccc2C(=O)N1C (stereo not given) : 14.2 µM (inactive)
O=c1cc(N2CCCC2)[nH]c(=O)n1-c1ccc(Cl)cc1 : > 100 µM (inactive)
COc1cc(C2SC(=N)Nc3c2c(C)nn3C(=O)Cc2ccccc2)cc(OC)c1OC (stereo not given) : > 100 µM (inactive)
Cc1cc(NS(=O)(=O)c2ccc(NC(=O)c3ccc(Cl)c4c(Nc5ccc(S(=O)(=O)N=C(N)N)cc5)c5ccccc5nc34)cc2)no1 : > 100 µM (inactive)

API: the following record is the query input.
Query Cc1ccc(NC(=O)CCC(=O)C2CC(=O)CCC2=O)cc1C (stereo not given) yields GI50 of > 100 µM (inactive)

* * *

Tested on: SK-MEL-5
Test: NCI tumour cell line growth inhibition, 48 h
Calls of active or inactive are those of the source. Rule as the data show it: active = GI50 up to about 1.1 µM and inactive = higher.
Lab note: assign the record to one of 1 for active, -1 for inactive

COC(=O)/C(=N\NC(=S)NN)C(C(=O)C(=O)Nc1ccccc1C(N)=O)c1nc2ccccc2nc1O (stereo not given) : -1
Nc1ccc(Oc2ccc(C3(c4ccc(Oc5ccc(N)c(O)c5)cc4)C4CC5CC(C4)CC3C5)cc2)cc1O : -1
O=C(/C=C/c1ccccc1)CCN1CCCCC1 : -1
O=C1OCC=C1COC1OC(CO)C(O)C(O)C1O (stereo not given) : -1

Q: Short answer needed: outcome of this test for CC(C)=CCc1c2c(c3occ(-c4ccc(O)cc4)c(=O)c3c1O)CC(C(C)(C)O)O2 (stereo not given) ?
Result: -1

Q: Short answer needed: outcome of this test for CCCc1c(O)nc2ccccc2c1O ?
Result: -1

Q: Short answer needed: outcome of this test for CCOc1ccccc1NC(=O)C(=O)C(/C(=N/N)C(=O)OC)c1nc2ccc([N+](=O)[O-])cc2nc1O (stereo not given) ?
Result: -1

Q: Short answer needed: outcome of this test for c1ccc2c(c1)c1c(n2CCOCCCN2CCCCC2)CCCC1 ?
Result: -1

Q: Short answer needed: outcome of this test for O=C(Cn1c(C(=O)/C=C/c2ccc(Cl)c(Cl)c2)nc2ccccc21)c1ccccc1 ?
Result: -1

* * *

Overview of reported GI50 across a group of compounds:
Test system: NCI-H226
Experiment: NCI tumour cell line growth inhibition, 48 h
Active and inactive are the calls of the source. Rule as the data show it: active = GI50 up to about 1.1 µM and inactive = higher.

NNC(=O)CCC(NS(=O)(=O)c1ccc(Cl)cc1)C(=O)NN (stereo unspecified) : > 100 µM (inactive)

Query COC(=O)C(=O)C(C(=O)C(=O)Nc1cccc(C(C)=O)c1)c1nc2ccc([N+](=O)[O-])cc2nc1O (stereo unspecified) yields GI50 of > 100 µM (inactive)

Query COC1C2C=CC(C2)[C@H]1[N+](=O)[O-] (stereo partly specified) yields GI50 of > 100 µM (inactive)

Query COc1nc2ncc([C@@H](O)[C@H](O)CO)nc2c(=O)n1C yields GI50 of > 100 µM (inactive)

* * *

System: M19-MEL
Assay: NCI tumour cell line growth inhibition, 48 h
Activity calls are given as the source filed them. Cut-off read from the data, not from the text of the source: active = GI50 up to about 1.1 µM and inactive = higher.
Lab note: assign the record to one of active, inactive

CC(C)NC(=O)OCc1nnn2c1CCC2 : inactive
COc1ccc(C(=O)C(C(=O)C(=O)Nc2ccc(Cl)c(Cl)c2)c2ccc(OC)cc2)cc1 (centres undefined) : inactive
Cc1ccc(S(=O)(=O)C2c3nc4ccccc4cc3-c3nc4ccccc4nc32)cc1 (centres undefined) : inactive

Here is another compound to look at.
Q: Short answer needed: outcome of this test for O=C(O)C1(c2ccccc2)CCCNCC1 (centres undefined) ?
Result: inactive

* * *

System: SN12C
Assay: NCI tumour cell line growth inhibition, 48 h
Calls of active or inactive are those of the source. No stated cut-off is given here; in the data, active = GI50 up to about 1.1 µM and inactive = higher.
Lab note: assign the record to one of active, inactive

CCOC(=O)c1cn(-c2ccc([N+](=O)[O-])cc2)c(=S)n2c1nc1ccccc12 : inactive
Nc1ccc(Oc2ccc(C34CC5CC(C3)CC(c3ccc(Oc6ccc(N)cc6)cc3)(C5)C4)cc2)cc1 : inactive
COc1cc(C2SC(=N)Nc3c2c(C)nn3C(=O)Cc2ccccc2)cc(OC)c1OC (centres undefined) : inactive
COC12OC3(C4OC41)C(C(=O)O[C@H]3CO[Si](C)(C)C(C)(C)C)C2C(=O)Oc1ccccc1 (some centres undefined) : inactive
Clc1cc(Cl)cc(/C=N/C23CC4CC(CC(C4)C2)C3)c1 : inactive

Q: Short answer needed: outcome of this test for Cc1[nH]c2ccccc2c1C1=NO/C(=N\O)C(c2c(C)[nH]c3ccccc23)C1 (centres undefined) ?
Result: inactive

* * *

Overview of reported GI50 across a group of molecules:
System: U-251
Experiment: NCI tumour cell line growth inhibition, 48 h
Active and inactive are the calls of the source. No stated cut-off is given here; in the data, active = GI50 up to about 1.1 µM and inactive = higher.

# example entries with known answers
COC(=O)C(C(=O)C(=O)Nc1cccc([N+](=O)[O-])c1)c1nc2ccc([N+](=O)[O-])cc2nc1O (stereo not drawn) : > 100 µM (inactive)
CC1(C)CNC(=O)C2(CCCO2)CNC(C)(C)CNC(=O)C2(CCCO2)CN1 (stereo not drawn) : > 10 µM (inactive)
COc1ccccc1OCc1nnc(SCC(=O)O)n1-c1ccccc1 : > 100 µM (inactive)
c1ccc(-c2cc(-c3cc(-c4ccccc4)n(-c4ccccc4)n3)nn2-c2ccccc2)cc1 : > 100 µM (inactive)
CC(C)=CCc1c2c(c3occ(-c4ccc(O)cc4)c(=O)c3c1O)CC(C(C)(C)O)O2 (stereo not drawn) [SENEGALENSIN] : 13.2 µM (inactive)
CCOC(=O)c1cc(C2CCN(c3ccccc3)C2=O)c(C(=O)/C=C(/C)N)[nH]1 (stereo not drawn) : 15 µM (inactive)
CC(C)CC1c2[nH]c3ccccc3c2C[C@H]2C(=O)NC(CCC(=O)OC(C)(C)C)C(=O)N12 (stereo partly drawn) : 29 µM (inactive)

API: the following record is the query input.
Query CC(=O)OC1C(=O)C(O)C(C)OC1O[C@@H]1C[C@@]2(C)[C@@H]3CC=C4[C@@H](C[C@H](O)C(=O)C4(C)C)[C@]3(C)C(=O)C[C@]2(C)[C@H]1[C@@](C)(O)C(=O)/C=C/C(C)(C)O (stereo partly drawn) yields GI50 of 1.16 µM (inactive)
